Quick reference for Kidney among some compounds
Tested on: NRK-52E, normal rat kidney cells
condition_notes: 24 h

COc1c(C)cc2c(c1O)[C@@H]1C3[C@@H]4SC[C@]5(NCCc6c5[nH]c5c(OCc7ccccc7)cccc65)C(=O)COC[C@@H](c5c6c(c(C)c(OC(C)=O)c54)OCO6)N3[C@@H](O)[C@H](C2)N1C (stereo partly shown)    8.37E−08
COc1c(C)cc2c(c1O)[C@@H]1C3[C@@H]4SC[C@]5(NC(C)Cc6c5[nH]c5ccccc65)C(=O)COC[C@@H](c5c6c(c(C)c(OC(C)=O)c54)OCO6)N3[C@@H](O)[C@H](C2)N1C (stereo partly shown) [Compound 43]    4.38E−08
COc1c(C)cc2c(c1O)[C@@H]1C3[C@@H]4SC[C@]5(NCCc6c5[nH]c5ccccc65)C(=O)COC[C@@H](c5c6c(c(C)c(OC(C)=O)c54)OCO6)N3[C@@H](O)[C@H](C2)N1C (stereo partly shown)    4.60E−08

Problem: Param item = COc1c(C)cc2c(c1O)[C@@H]1C3[C@@H]4SC[C@]5(NCCc6c5[nH]c5ccc(O)cc65)C(=O)COC[C@@H](c5c6c(c(C)c(OC(C)=O)c54)OCO6)N3[C@@H](O)[C@H](C2)N1C (stereo partly shown) ; retrieve measured Kidney.
Solution: 4.27E−08

Problem: And then COc1c(C)cc2c(c1O)[C@@H]1C3[C@@H]4SC[C@]5(NCCc6c5[nH]c5ccc(OCc7ccccc7)cc65)C(=O)COC[C@@H](c5c6c(c(C)c(OC(C)=O)c54)OCO6)N3[C@@H](O)[C@H](C2)N1C (stereo partly shown) , what is it?
Solution: 1.94E−08

Problem: Same question for COc1c(C)cc2c(c1O)[C@@H]1C3[C@@H]4SC[C@]5(NC(C)Cc6c5[nH]c5ccccc65)C(=O)COC[C@@H](c5c6c(c(C)c(OC(C)=O)c54)OCO6)N3[C@@H](O)[C@H](C2)N1C (stereo partly shown) [Compound 44] please.
Solution: 4.15E−07

Problem: Try COc1c(C)cc2c(c1O)[C@@H]1C3[C@@H]4SC[C@]5(NC(C)Cc6c5[nH]c5ccc(F)cc65)C(=O)COC[C@@H](c5c6c(c(C)c(OC(C)=O)c54)OCO6)N3[C@@H](O)[C@H](C2)N1C (stereo partly shown) [Compound 41] next.
Solution: 1.89E−08

Problem: Similarly, COc1c(C)cc2c(c1OC(=O)OC(C)(C)C)[C@@H]1C3[C@@H]4SC[C@]5(NCCc6c5[nH]c5ccccc65)C(=O)COC[C@@H](c5c6c(c(C)c(OC(C)=O)c54)OCO6)N3[C@@H](O)[C@H](C2)N1C (stereo partly shown) ?
Solution: 4.01E−08

Problem: Next record, please: COc1ccc2c3c([nH]c2c1)[C@@]1(CS[C@@H]2c4c(OC(C)=O)c(C)c5c(c4[C@H](COCC1=O)N1C2[C@H]2c4c(cc(C)c(OC)c4O)C[C@@H]([C@@H]1O)N2C)OCO5)NCC3 (stereo partly shown)
Solution: 2.74E−07

Problem: Can you handle COc1c(C)cc2c(c1O)[C@@H]1C3[C@@H]4SC[C@]5(NC(C)Cc6c5[nH]c5ccc(O)cc65)C(=O)COC[C@@H](c5c6c(c(C)c(OC(C)=O)c54)OCO6)N3[C@@H](O)[C@H](C2)N1C (stereo partly shown) [Compound 37] next?
Solution: 2.92E−08
